Entries and their MIC90, Aspergillus fumigatus values follow.
# Tested on: Aspergillus fumigatus (IOC 4526)
# test name: Resazurin microtiter assay plate, antifungal MIC90
# Format: cell-based
# experimental parameters: resazurin colour change, RPMI 1640, 1 to 250 μM, 28 °C, 24–72 h; three independent experiments
Residues, ends and D or L forms follow the SMILES beside them.

Worked examples follow.
compound: CSCC[C@H](NC(=O)[C@H](CCC(N)=O)NC(=O)[C@@H](N)CO)C(=O)NCC(=O)N[C@@H](CCC(N)=O)C(=O)N[C@@H](CCSC)C(=O)N[C@@H](CO)C(=O)N[C@@H](CO)C(=O)N[C@@H](CCCNC(=N)N)C(=O)N[C@@H](CCCNC(=N)N)C(=O)N[C@@H](CCCNC(=N)N)C(=O)N[C@@H](Cc1ccccc1)C(=O)NCC(=O)N[C@@H](CCCCN)C(=O)O [PS4] (H-SQMGQMSSRRRFGK-OH)
value kind: MIC90, Aspergillus fumigatus
recorded measurement: >250 µM

compound: N=C(N)NCCC[C@H](NC(=O)CNC(=O)[C@@H]1CCCN1C(=O)CNC(=O)[C@@H](N)CO)C(=O)N[C@@H](CCCNC(=N)N)C(=O)N[C@@H](CO)C(=O)N[C@@H](CO)C(=O)N[C@@H](CCCNC(=N)N)C(=O)N[C@@H](CCCNC(=N)N)C(=O)N[C@@H](CCCNC(=N)N)C(=O)N[C@@H](Cc1c[nH]c2ccccc12)C(=O)N[C@@H](CCCCN)C(=O)O [PS5] (H-SGPGRRSSRRRWK-OH)
value kind: MIC90, Aspergillus fumigatus
recorded measurement: >250 µM

Turning now to a further record.
-- ask What value of MIC90, Aspergillus fumigatus has been recorded for this entry: N=C(N)NCCC[C@H](NC(=O)[C@H](Cc1c[nH]c2ccccc12)NC(=O)[C@H](CCCNC(=N)N)NC(=O)[C@@H](N)CO)C(=O)N[C@@H](Cc1c[nH]c2ccccc12)C(=O)N[C@@H](CCCCN)C(=O)N[C@@H](CO)C(=O)O [PS6] (H-SRWRWKS-OH)
-- reply >250 µM

---

Entries and their MIC, K. pneumoniae values follow.
# Tested on: Klebsiella pneumonia
# test name: Microbroth dilution assay, MIC
# Assay type: cell-based, Klebsiella pneumoniae
# experimental parameters: short derived peptides, 2.75 to 700 µg/mL, overnight 37 °C, read at 600 nm, three independent experiments
Residues, ends and D or L forms follow the SMILES beside them.

Worked examples follow.
compound: CSCC[C@H](NC(=O)[C@H](CCC(N)=O)NC(=O)[C@@H](N)CO)C(=O)NCC(=O)N[C@@H](CCCNC(=N)N)C(=O)N[C@@H](CCSC)C(=O)N[C@@H](CO)C(=O)N[C@@H](CO)C(=O)N[C@@H](CCCNC(=N)N)C(=O)N[C@@H](CCCNC(=N)N)C(=O)N[C@@H](CCCNC(=N)N)C(=O)N[C@@H](Cc1ccccc1)C(=O)NCC(=O)N[C@@H](CCCCN)C(=O)O [PS2] (H-SQMGRMSSRRRFGK-OH)
MIC, K. pneumoniae: >415 µM
--
compound: N=C(N)NCCC[C@H](NC(=O)CNC(=O)[C@@H]1CCCN1C(=O)CNC(=O)[C@@H](N)CO)C(=O)N[C@@H](CCCNC(=N)N)C(=O)N[C@@H](CO)C(=O)N[C@@H](CO)C(=O)N[C@@H](CCCNC(=N)N)C(=O)N[C@@H](CCCNC(=N)N)C(=O)N[C@@H](CCCNC(=N)N)C(=O)N[C@@H](CCCCN)C(=O)O [PS3] (H-SGPGRRSSRRRK-OH)
MIC, K. pneumoniae: >500 µM
--
compound: N=C(N)NCCC[C@H](NC(=O)CNC(=O)[C@@H]1CCCN1C(=O)CNC(=O)[C@@H](N)CO)C(=O)N[C@@H](CCCNC(=N)N)C(=O)N[C@@H](CO)C(=O)N[C@@H](CO)C(=O)N[C@@H](CCCNC(=N)N)C(=O)N[C@@H](CCCNC(=N)N)C(=O)N[C@@H](CCCNC(=N)N)C(=O)N[C@@H](Cc1c[nH]c2ccccc12)C(=O)N[C@@H](CCCCN)C(=O)O [PS5] (H-SGPGRRSSRRRWK-OH)
MIC, K. pneumoniae: 27.7 µM

Turning now to a further record.
-- ask What is its MIC, K. pneumoniae for Klebsiella pneumonia? Entry: N=C(N)NCCC[C@H](NC(=O)[C@H](Cc1c[nH]c2ccccc12)NC(=O)[C@H](CCCNC(=N)N)NC(=O)[C@@H](N)CO)C(=O)N[C@@H](Cc1c[nH]c2ccccc12)C(=O)N[C@@H](CCCCN)C(=O)N[C@@H](CO)C(=O)N[C@@H](CO)C(=O)N[C@@H](CCCCN)C(=O)N[C@@H](CCCCN)C(=O)NCC(=O)N[C@@H](CO)C(=O)NCC(=O)O [PS1] (H-SRWRWKSSKKGSG-OH)
-- reply >452 µM

---

# System: Klebsiella pneumonia
# test name: Microbroth dilution assay, MIC
# Assay type: cell-based, Klebsiella pneumoniae
# experimental parameters: short derived peptides, 2.75 to 700 µg/mL, overnight 37 °C, read at 600 nm, three independent experiments
Residues, ends and D or L forms follow the SMILES beside them.
value kind: MIC, K. pneumoniae

compound: N=C(N)NCCC[C@H](NC(=O)[C@H](Cc1c[nH]c2ccccc12)NC(=O)[C@H](CCCNC(=N)N)NC(=O)[C@@H](N)CO)C(=O)N[C@@H](Cc1c[nH]c2ccccc12)C(=O)N[C@@H](CCCCN)C(=O)N[C@@H](CO)C(=O)O [PS6] (H-SRWRWKS-OH)
system tested: Klebsiella pneumonia
MIC, K. pneumoniae: >697 µM

Turning now to a further record.
-- ask What value of MIC, K. pneumoniae has been recorded for this entry: CSCC[C@H](NC(=O)[C@H](CCC(N)=O)NC(=O)[C@@H](N)CO)C(=O)NCC(=O)N[C@@H](CCC(N)=O)C(=O)N[C@@H](CCSC)C(=O)N[C@@H](CO)C(=O)N[C@@H](CO)C(=O)N[C@@H](CCCNC(=N)N)C(=O)N[C@@H](CCCNC(=N)N)C(=O)N[C@@H](CCCNC(=N)N)C(=O)N[C@@H](Cc1ccccc1)C(=O)NCC(=O)N[C@@H](CCCCN)C(=O)O [PS4] (H-SQMGQMSSRRRFGK-OH)
-- reply >423 µM
